A collection of compounds and their measured inhibition
target_of_assay: Amyloid-beta precursor protein (Homo sapiens, UniProt P05067)
Sequence (P05067 whole entry): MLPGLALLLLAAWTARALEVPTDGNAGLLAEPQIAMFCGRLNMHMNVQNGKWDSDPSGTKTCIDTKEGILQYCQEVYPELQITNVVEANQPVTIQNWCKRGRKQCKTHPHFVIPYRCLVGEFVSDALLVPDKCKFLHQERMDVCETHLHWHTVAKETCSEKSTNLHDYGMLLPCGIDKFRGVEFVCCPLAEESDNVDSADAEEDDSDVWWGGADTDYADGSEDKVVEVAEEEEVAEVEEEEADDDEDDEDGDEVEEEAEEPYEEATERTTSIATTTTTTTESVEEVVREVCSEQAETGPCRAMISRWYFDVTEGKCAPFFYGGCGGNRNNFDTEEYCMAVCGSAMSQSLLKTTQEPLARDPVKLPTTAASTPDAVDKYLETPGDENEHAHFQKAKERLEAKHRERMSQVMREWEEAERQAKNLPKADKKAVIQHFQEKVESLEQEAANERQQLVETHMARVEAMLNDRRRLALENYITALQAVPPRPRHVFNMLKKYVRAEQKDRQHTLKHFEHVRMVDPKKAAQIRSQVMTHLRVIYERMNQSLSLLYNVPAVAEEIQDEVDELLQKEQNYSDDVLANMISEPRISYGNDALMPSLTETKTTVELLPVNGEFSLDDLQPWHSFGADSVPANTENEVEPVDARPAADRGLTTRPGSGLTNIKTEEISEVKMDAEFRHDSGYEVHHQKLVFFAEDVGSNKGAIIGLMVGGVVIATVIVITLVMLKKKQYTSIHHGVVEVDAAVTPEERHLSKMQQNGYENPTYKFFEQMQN
assay_comment: Inhibition of amyloid beta (1 to 42) (unknown origin) aggregation at 100 uM incubated at 37 degC for 16 hrs by thioflavin T fluorescence assay
Give your result in % as a bare value.

Before answering, review these 8 worked examples.
O=C(O[C@@H]1Cc2c(O)cc(O)cc2O[C@@H]1c1cc(O)c(O)c(O)c1)c1cc(O)c(O)c(O)c1 [EPIGALOCATECHIN GALLATE]    95.1
C[C@@]12c3ccc4c(c3C(=O)c3occ(c31)[C@@H](O)C[C@@H]2O)CCC4=O    99
C[C@]12CC[C@H](O)c3coc(c31)C(=O)C1=C2[C@@H](O)C[C@]2(C)C(=O)CC[C@@H]12    54.6
C[C@@]12C(=O)CC[C@H]1C1=C(C[C@H]2O)[C@@]2(C)CC[C@H](O)c3coc(c32)C1=O    70.4
C[C@]1(O)c2ccc3c(c2C(=O)c2occ(CCCO)c21)CCC3=O    89.5
C[C@]1(O)c2ccc3c(c2C(=O)c2occ(CCO)c21)CCC3=O    62.8
C[C@@]1(O)c2ccc3c(c2C(=O)c2occ([C@@H](O)CCO)c21)CCC3=O    80.5
C[C@]12CCC(=O)c3coc(c31)C(=O)C1=C2[C@@H](O)C[C@]2(C)C(=O)CC[C@@H]12    98.8

Entry C[C@]1(O)c2ccc3c(c2C(=O)c2occ([C@@H](O)CCO)c21)CCC3=O , Amyloid-beta precursor protein (Homo sapiens, UniProt P05067) data, inhibition value: 63.5
